Reference source for all entries: paper PMC11500415

Biological target: MUTE_ACTL (Arabidopsis thaliana, UniProt Q9M8K6)
Construct: MUTE-ACTL (114-202); made in house; host or cells: E. coli BL21
Sequence (Q9M8K6 114-202): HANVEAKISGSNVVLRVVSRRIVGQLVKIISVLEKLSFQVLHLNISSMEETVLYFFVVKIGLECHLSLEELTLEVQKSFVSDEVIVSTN
Assay: BLI direct binding
Design: species or system A. thaliana
Conditions: BLI, sensor at Stomid 3.12 µM; read-out: KD

{"compound": "O=C1C(c2ccccc2)=NC(NS(=O)(=O)c2ccccc2)(c2ccccc2)N1S(=O)(=O)c1ccccc1 (stereo not shown) [Stomidazolone]", "Kd [µM]": 11.7}

----------
Target: MUTE_ACTLE162A_E163A (Arabidopsis thaliana, UniProt Q9M8K6, E162A/E163A)
Construct: MUTE-ACTL (114-202); made in house; host or cells: E. coli BL21
Sequence (Q9M8K6 114-202 E162A/E163A): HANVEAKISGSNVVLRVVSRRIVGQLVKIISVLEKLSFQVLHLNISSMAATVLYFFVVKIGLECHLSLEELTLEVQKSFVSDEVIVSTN
Assay: BLI direct binding
Design: species or system A. thaliana
Conditions: MUTE_E162A_E163A on Anti-GST sensor; Stomid 3.12 µM; rep-1, rep-2; read-out: KD
pKd: −log10 of the molar value.
observation_type: pKd

{"compound": "O=C1C(c2ccccc2)=NC(NS(=O)(=O)c2ccccc2)(c2ccccc2)N1S(=O)(=O)c1ccccc1 (stereo not shown) [Stomidazolone]", "obs_value": 4.06}

----------
Target: SPCH_ACTL (Arabidopsis thaliana, UniProt Q700C7)
Construct: SPCH-ACTL (285-364); GST (N, cleaved yes); made in house; host or cells: E. coli BL21
Sequence (Q700C7 285-364): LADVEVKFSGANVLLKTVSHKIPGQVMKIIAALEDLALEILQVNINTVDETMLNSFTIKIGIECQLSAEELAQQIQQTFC
Test: BLI direct binding
Set-up: species or system A. thaliana
Details: BLI, read-out: KD
pKd: −log10 of the molar value.
observation_type: pKd

{"compound": "O=C1C(c2ccccc2)=NC(NS(=O)(=O)c2ccccc2)(c2ccccc2)N1S(=O)(=O)c1ccccc1 (stereo not shown) [Stomidazolone]", "observation_type": "pKd", "obs_value": 4.06}

----------
Molecular target: MUTE_ACTLR133A_R134A (Arabidopsis thaliana, UniProt Q9M8K6, R133A/R134A)
Construct: MUTE-ACTL (114-202); made in house; host or cells: E. coli BL21
Sequence (Q9M8K6 114-202 R133A/R134A): as the sequence (Q9M8K6 114-202) above, with R20A, R21A counted along it
Assay: ITC direct binding
Design: species or system A. thaliana
Conditions: MUTE_ACTL R133A_R134A

{"compound": "O=C1C(c2ccccc2)=NC(NS(=O)(=O)c2ccccc2)(c2ccccc2)N1S(=O)(=O)c1ccccc1 (stereo not shown) [Stomidazolone]", "tested_on": "MUTE_ACTLR133A_R134A (Arabidopsis thaliana, UniProt Q9M8K6, R133A/R134A)", "units_label": "µM", "Kd": 127}
